Biological target: human ether-à-go-go-related gene (hERG) potassium channel (human, UniProt Q12809)
Sequence (Q12809 whole entry, looked up): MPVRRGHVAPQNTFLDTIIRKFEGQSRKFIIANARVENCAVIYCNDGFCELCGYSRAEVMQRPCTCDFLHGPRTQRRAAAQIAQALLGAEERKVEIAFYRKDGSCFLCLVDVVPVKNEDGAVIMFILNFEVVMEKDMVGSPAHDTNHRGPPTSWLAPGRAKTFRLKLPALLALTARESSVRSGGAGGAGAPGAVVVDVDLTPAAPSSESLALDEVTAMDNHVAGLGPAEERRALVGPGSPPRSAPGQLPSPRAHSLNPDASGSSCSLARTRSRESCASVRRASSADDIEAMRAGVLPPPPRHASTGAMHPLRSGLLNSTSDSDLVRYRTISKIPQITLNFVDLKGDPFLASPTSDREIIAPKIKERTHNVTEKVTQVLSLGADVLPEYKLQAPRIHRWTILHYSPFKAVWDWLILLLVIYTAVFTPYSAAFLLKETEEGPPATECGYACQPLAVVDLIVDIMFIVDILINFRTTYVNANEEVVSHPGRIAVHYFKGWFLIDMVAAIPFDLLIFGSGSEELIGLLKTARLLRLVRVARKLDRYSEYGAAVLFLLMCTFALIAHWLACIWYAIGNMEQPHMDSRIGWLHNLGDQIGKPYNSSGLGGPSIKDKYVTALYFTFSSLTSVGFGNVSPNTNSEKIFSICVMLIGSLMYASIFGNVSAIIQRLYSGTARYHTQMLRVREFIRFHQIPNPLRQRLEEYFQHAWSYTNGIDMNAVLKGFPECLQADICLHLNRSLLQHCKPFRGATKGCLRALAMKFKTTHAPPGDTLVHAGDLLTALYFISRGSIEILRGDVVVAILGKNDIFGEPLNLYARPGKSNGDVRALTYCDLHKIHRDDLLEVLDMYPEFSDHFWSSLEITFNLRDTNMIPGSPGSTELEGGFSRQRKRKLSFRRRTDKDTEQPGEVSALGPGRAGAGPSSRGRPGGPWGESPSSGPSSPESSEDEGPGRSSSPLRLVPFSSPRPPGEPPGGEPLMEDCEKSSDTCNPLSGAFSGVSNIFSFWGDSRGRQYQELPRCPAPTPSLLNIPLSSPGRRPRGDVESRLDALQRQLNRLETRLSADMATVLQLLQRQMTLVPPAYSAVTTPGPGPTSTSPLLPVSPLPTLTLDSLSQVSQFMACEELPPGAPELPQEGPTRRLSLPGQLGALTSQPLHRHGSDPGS
Assay: primary screen, population patch clamp on CHO cells stably expressing hERG; higher = less effect of the substance
The whole screen tested about 310,000 compounds, of which about 14,000 (4.5%) showed an effect of 50% or more. Effects have a minus sign here. Shown is part of a subset that was picked to be rich in strong results.
# reported hERG current change (%, negative = inhibition) at 10uM; entries follow
REPORTED_ENDPOINT: hERG current change (%, negative = inhibition) at 10uM (%)

COMPOUND	SCALE_UNIT	ASSAY_VALUE
CSCC[C@H](NC(=O)C(C)Oc1ccc(Cl)cc1)c1nc2ccccc2[nH]1 (stereo partly shown)	%	-7.16
N#Cc1ccccc1Cn1cc(C(=O)c2ccccc2F)c2ccccc21	%	4.67
C/C(CC(=O)NCc1ccco1)=N\NC(=O)c1ccc([N+](=O)[O-])cc1Cl	%	10.5
COC(=O)CSc1nc(NC(C)=O)nc(C)c1Br	%	9.72
Nc1ccccc1SSc1ccccc1N	%	27.7
O=C(/C=C/c1ccc([N+](=O)[O-])s1)N1CCCC1	%	-52.9
COc1ccccc1-c1noc(CCC(=O)Nc2ccccc2Cl)n1	%	-4.71
CC(=O)N1c2ccc(S(=O)(=O)N3CCC(C(=O)Nc4cccc(C(F)(F)F)c4)CC3)cc2CC1C (stereo not shown)	%	11.7
CSCC[C@H](NC(=O)COc1ccc(Cl)cc1)c1nc2ccccc2[nH]1	%	-56.5
CCn1c(CNC(=O)C2CCCCC2)cc2cc(C)ccc21	%	28

###

Target: human ether-à-go-go-related gene (hERG) potassium channel (human, UniProt Q12809)
Experiment: primary screen, population patch clamp on CHO cells stably expressing hERG; higher = less effect of the substance
Out of some 310,000 compounds screened, about 14,000 (4.5%) showed an effect of 50% or more. Effects have a minus sign here. The list comes from a sample in which strong results are over-represented; it also holds close analogues and randomly drawn compounds.
So basically: hERG current change (%, negative = inhibition) at 10uM at -20% or higher? That is satisfied. Lower than -20%? That is not satisfied.

COMPOUND_SMILES	CATEGORY_LABEL
COc1ccc(/C(N)=N/OC(=O)c2ccc(C)c([N+](=O)[O-])c2)cc1OC	satisfied
CCOC(=O)C1CCN(C(=O)CN(c2cc(OC)ccc2OC)S(=O)(=O)c2ccccc2)CC1	satisfied
N/C(Cc1ccc([N+](=O)[O-])cc1)=N\OC(=O)c1ccccc1F	not satisfied
COC(=O)c1cccc(Nc2nc(-c3ccncc3)nc3ccccc23)c1	satisfied
N/C(Cc1ccc([N+](=O)[O-])cc1)=N\OC(=O)c1ccc2ccccc2c1	satisfied
N/C(Cc1ccc([N+](=O)[O-])cc1)=N\OC(=O)c1ccc([N+](=O)[O-])cc1	not satisfied
CCCc1nc2ccccc2c(=O)n1-c1ccc(C(=O)OCC)cc1	satisfied
C/C(=N\NC(=O)c1c(Br)c(C)nn1C)c1cccc(NC(=O)C2CCC2)c1	satisfied
CCOC(=O)N1CCN(C(=O)CN(c2cc(Cl)ccc2OC)S(=O)(=O)c2ccccc2)CC1	satisfied

###

Target: human ether-à-go-go-related gene (hERG) potassium channel (human);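 also: peak tail current of the secondary pulse compared with the same well before compound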
Assay: primary screen, population patch clamp on CHO cells stably expressing hERG; higher = less effect of the substance
Screen size: about 310,000 compounds; about 14,000 (4.5%) showed an effect of 50% or more. Effects have a minus sign here. Shown is part of a subset that was picked to be rich in strong results.
REPORTED_ENDPOINT: hERG current change (%, negative = inhibition) at 10uM (%)

MOLECULE	SCALE_UNIT	ASSAY_VALUE
Nc1nc(NC(=O)/C=C/c2ccccc2)nn1-c1ccccc1	%	-32.6
O=C(c1ccc(CN2CCOCC2)cc1)N1CCN(c2ccccc2F)CC1	%	-3.33
COc1ccc(-c2cc(=O)oc3cc(OCC(C)=O)ccc23)cc1	%	-74.6
O=C(Nc1ccc2nc(-c3ccc4nc[nH]c4c3)[nH]c2c1)c1cccs1	%	17.1
COc1ccc(C(=O)Nc2nc(N)n(-c3ccccc3)n2)cc1	%	-11.4
Nc1nc(NC(=O)/C=C\C(=O)O)nn1-c1ccccc1	%	27.8
Cc1cc(C)c(C(=O)COC(=O)c2cc([N+](=O)[O-])ccc2N2CCOCC2)cc1C	%	-4.07
Cc1ccccc1NC1=CC(=O)CC(C)(C)C1	%	-0.789
O=C(COc1ccc2c(-c3ccccc3)cc(=O)oc2c1)NCCCn1ccnc1	%	-48.7
O=C(NCc1ccccc1)C(C(=O)c1ccc(F)cc1)n1ccccc1=O (stereo not shown)	%	-0.0984

###

hERG current change (%, negative = inhibition) at 10uM values, listed per item
Target: human ether-à-go-go-related gene (hERG) potassium channel (human, UniProt Q12809);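 also: peak tail current of the secondary pulse compared with the same well before compound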
Test: primary screen, population patch clamp on CHO cells stably expressing hERG; higher = less effect of the substance
The whole screen tested about 310,000 compounds, of which about 14,000 (4.5%) showed an effect of 50% or more. Effects have a minus sign here. For the sample, strong results were picked, then their nearest neighbours and some compounds at random.
REPORTED_ENDPOINT: hERG current change (%, negative = inhibition) at 10uM (%)

COMPOUND_SMILES	ASSAY_VALUE
COc1ccc(Br)cc1/C=N/NC(=O)CN1CCN(Cc2ccccc2)CC1	-33.1
Cc1nn(-c2ccccc2)c(N2CCCC2)c1/C=N/NC(=O)c1cc2ccccc2cc1O	-55.5
CCOc1cc(/C=N/NC(=O)CN2CCCCC2)ccc1OCc1ccc(Cl)cc1	7.37
COc1ccc(Br)cc1/C=N/NC(=O)CN1CCCCC1	-4.99
Cc1nn(-c2ccccc2)c(N2CCCC2)c1/C=N/NC(=O)c1ccccc1O	-2.88
COc1cc(/C=N/NC(=O)CCN2CCN(Cc3ccccc3)CC2)cc(OC)c1OC	-29.2
COc1cc(/C=N/NC(=O)c2ccoc2C)ccc1OCCN1CCCCC1	-31.6
COc1cc(/C=N/NC(=O)CN2CCCCC2)ccc1OCc1ccc(Br)cc1	-59
Cc1nn(-c2ccccc2)c(N2CCCC2)c1/C=N/NC(=O)c1cc(-c2ccccc2)nc2ccccc12	13.3

###

Molecular target: human ether-à-go-go-related gene (hERG) potassium channel (human, UniProt Q12809);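 also: peak tail current of the secondary pulse compared with the same well before compound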
Test: primary screen, population patch clamp on CHO cells stably expressing hERG; higher = less effect of the substance
Description: Briefly, Chinese hamster ovary (CHO) cells stably expressing the hERG channel were dislodged from tissue culture flasks and dispensed into PPC plates. […] During the recording, background leak currents were estimated by a 100 ms step to -80 mV from an initial holding potential of -70 mV and subtracted from the subsequent current measurement. The campaign was conducted in two phases using slight differences in recording protocol. […]
Among all 310,000 compounds or so, about 14,000 (4.5%) showed an effect of 50% or more. Effects have a minus sign here. For the sample, strong results were picked, then their nearest neighbours and some compounds at random.
REPORTED_ENDPOINT: hERG current change (%, negative = inhibition) at 10uM (%)

COMPOUND	SCALE_UNIT	ASSAY_VALUE
CCOc1ccc2nc(N3CCCC(C(=O)NCC4CCCO4)C3)sc2c1 (stereo not shown)	%	-19.1
Cc1cc(C)c2nc(N3CCC(C(=O)NCCCN4CCCC4=O)CC3)sc2c1	%	-25.5
CCn1c(=O)c2c(nc3n2CCCN3Cc2ccccc2)n(C)c1=O	%	-18.2
Cc1ccc(S(=O)(=O)N2CCC(C(=O)NCCCN3CCCC3=O)CC2)cc1C	%	7.98
COc1ccc2nc(N3CCCC(C(=O)NCCCN4C(C)CCCC4C)C3)sc2c1 (stereo not shown)	%	-34.1
COc1ccc2nc(N3CCCC(C(=O)NCCCN4CCN(C)CC4)C3)sc2c1 (stereo not shown)	%	1.67
O=C(NCCCN1CCCC1=O)C1CCN(S(=O)(=O)c2c(Cl)cccc2Cl)CC1	%	-0.379
COCC(=O)N1CCC(Oc2ccc(C(=O)NCc3cc(C(C)C)no3)cc2)CC1	%	-2.22
CCN(CC)S(=O)(=O)c1ccc(NC(=O)CO/N=C(\N)c2ccccc2)cc1	%	-16.6
Cc1ccc(C2(COC(=O)C(C)C)CO2)c(OC(=O)C(C)C)c1 (stereo not shown)	%	2.15

###

Recorded measurements of hERG current change (%, negative = inhibition) at 10uM, one per entry
Molecular target: human ether-à-go-go-related gene (hERG) potassium channel (human, UniProt Q12809);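 also: peak tail current of the secondary pulse compared with the same well before compound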
Assay: primary screen, population patch clamp on CHO cells stably expressing hERG; higher = less effect of the substance
The whole screen tested about 310,000 compounds, of which about 14,000 (4.5%) showed an effect of 50% or more. Effects have a minus sign here. The sample holds strong results, similar compounds and a random draw of the others, so the mix is not that of the screen.
REPORTED_ENDPOINT: hERG current change (%, negative = inhibition) at 10uM (%)

COMPOUND	ASSAY_VALUE
COc1ccccc1-n1c(SCC(=O)NCC2CCCO2)nc2c([nH]c3ccccc32)c1=O (stereo not shown)	9.22
CCOC(=O)[C@@H]1[C@H]2COc3ccc(Br)cc3[C@H]2N2C(=O)N(c3ccc(Br)cc3)C(=O)[C@]12C	7.88
CCCCn1c(N)c(N(CC(C)C)C(=O)CSC(C)C(=O)Nc2cc(C)on2)c(=O)[nH]c1=O (stereo not shown)	9.14
COc1ccc(-c2nc(SC(CC(=O)NCc3ccccc3)c3ccc(OC)c(OC)c3)n[nH]2)cc1 (stereo not shown)	-0.421
